- target-desc: Estrogen receptor (Mus musculus) (UniProt O08537+P19785)
- Sequence (O08537 whole entry, looked up): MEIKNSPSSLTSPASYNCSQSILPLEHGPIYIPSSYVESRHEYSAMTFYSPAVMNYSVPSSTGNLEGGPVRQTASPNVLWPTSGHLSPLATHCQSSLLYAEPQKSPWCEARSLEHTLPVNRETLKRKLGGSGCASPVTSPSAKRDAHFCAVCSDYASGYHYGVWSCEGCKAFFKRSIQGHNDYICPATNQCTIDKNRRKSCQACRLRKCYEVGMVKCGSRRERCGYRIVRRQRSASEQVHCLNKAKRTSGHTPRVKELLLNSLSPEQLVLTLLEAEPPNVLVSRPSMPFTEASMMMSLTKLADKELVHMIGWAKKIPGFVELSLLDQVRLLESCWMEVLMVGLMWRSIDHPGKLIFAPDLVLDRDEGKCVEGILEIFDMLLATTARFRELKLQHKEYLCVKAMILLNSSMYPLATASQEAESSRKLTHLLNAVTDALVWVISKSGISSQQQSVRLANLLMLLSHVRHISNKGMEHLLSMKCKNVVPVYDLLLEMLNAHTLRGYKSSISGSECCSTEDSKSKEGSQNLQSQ
- Sequence (P19785 whole entry, looked up): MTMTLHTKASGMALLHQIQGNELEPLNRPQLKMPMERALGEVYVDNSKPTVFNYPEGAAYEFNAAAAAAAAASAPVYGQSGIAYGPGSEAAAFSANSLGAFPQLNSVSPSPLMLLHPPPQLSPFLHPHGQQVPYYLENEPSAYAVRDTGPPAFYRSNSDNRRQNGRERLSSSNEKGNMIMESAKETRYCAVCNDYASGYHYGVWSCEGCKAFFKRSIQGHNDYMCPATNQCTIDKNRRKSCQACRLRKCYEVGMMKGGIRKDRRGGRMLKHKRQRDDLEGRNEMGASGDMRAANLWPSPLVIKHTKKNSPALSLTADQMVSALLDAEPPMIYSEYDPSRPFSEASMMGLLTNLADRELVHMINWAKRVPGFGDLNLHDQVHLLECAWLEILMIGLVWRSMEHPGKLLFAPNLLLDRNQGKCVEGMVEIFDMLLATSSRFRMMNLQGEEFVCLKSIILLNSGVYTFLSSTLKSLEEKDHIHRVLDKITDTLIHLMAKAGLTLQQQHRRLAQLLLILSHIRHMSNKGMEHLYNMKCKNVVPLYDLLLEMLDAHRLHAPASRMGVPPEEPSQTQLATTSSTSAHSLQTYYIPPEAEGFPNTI
- assay-notes: Estrogenic activity in uterotrophic assay in immature mice at 50.0 ug subcutaneous dose
- Format: functional
Examples of compounds with documented Effect follow.

| compound | Effect |
| --- | --- |
| CCC1Cn2c(cc3cc(OC(C)=O)ccc32)-c2ccc(OC(C)=O)cc21 (centres undefined) | 24.1 |
| CCC1Cc2cc(OC(C)=O)ccc2-c2cc3cc(OC(C)=O)ccc3n21 (centres undefined) | 35.8 |
| CCC1Cc2cc(OC(C)=O)ccc2-c2cc3ccc(OC(C)=O)cc3n21 (centres undefined) | 18.5 |
| CC(=O)Oc1ccc2c(c1)CC(C)n1c-2cc2cc(OC(C)=O)ccc21 (centres undefined) | 53.3 |

---

- Tested on: MDA-MB-231
- assay-notes: Effect on [3H]thymidine incorporation into MDA-MB 231 human breast cancer cells at 1x10E-5 M
- Format: functional

| molecule | T/C [%] |
| --- | --- |
| CCC1Cc2cc(OC(C)=O)ccc2-c2cc3ccc(OC(C)=O)cc3n21 (stereo not drawn) | 8 |
| CCC1Cc2cc(OC(C)=O)ccc2-c2c(C=O)c3cc(OC(C)=O)ccc3n21 (stereo not drawn) | 7 |
| CCC1Cc2cc(OC(C)=O)c(OC(C)=O)cc2-c2cc3cc(OC(C)=O)ccc3n21 (stereo not drawn) | 38 |
| CCC1Cc2cc(OC(C)=O)ccc2-c2cc3cc(OC(C)=O)ccc3n21 (stereo not drawn) | 4 |
| CCC1Cn2c(cc3cc(OC(C)=O)ccc32)-c2ccc(OC(C)=O)cc21 (stereo not drawn) | 25 |
| CC(=O)Oc1ccc2c(c1)CC(C)n1c-2cc2cc(OC(C)=O)ccc21 (stereo not drawn) | 5 |
| CC/C(=C(\c1ccccc1)c1ccc(OCCN(C)C)cc1)c1ccccc1 | 97 |
| CCc1cc2cc(OC(C)=O)ccc2c2cc3ccc(OC(C)=O)cc3n12 | 3 |

---

- target-desc: Estrogen receptor (Mus musculus) (UniProt O08537+P19785)
- assay-notes: Inhibition of 0.4 ug estrone-stimulated uterine growth in mice at 2 ug subcutaneous dose
- Format: functional

| compound | target-desc | measurement-unit | inhibition |
| --- | --- | --- | --- |
| CCC1Cc2cc(OC(C)=O)c(OC(C)=O)cc2-c2cc3cc(OC(C)=O)ccc3n21 (stereo not given) | Estrogen receptor (Mus musculus) (UniProt O08537+P19785) | % | 11.7 |
| CCC1Cc2cc(OC(C)=O)ccc2-c2cc3ccc(OC(C)=O)cc3n21 (stereo not given) | Estrogen receptor (Mus musculus) (UniProt O08537+P19785) | % | 2.8 |
| CCC1Cc2cc(OC(C)=O)ccc2-c2c(C=O)c3cc(OC(C)=O)ccc3n21 (stereo not given) | Estrogen receptor (Mus musculus) (UniProt O08537+P19785) | % | 19.6 |
| CC(=O)Oc1ccc2c(c1)CC(C)n1c-2cc2cc(OC(C)=O)ccc21 (stereo not given) | Estrogen receptor (Mus musculus) (UniProt O08537+P19785) | % | -8 |
| CCC1Cc2cc(OC(C)=O)ccc2-c2cc3cc(OC(C)=O)ccc3n21 (stereo not given) | Estrogen receptor (Mus musculus) (UniProt O08537+P19785) | % | 7.2 |
